target entity: purified BTK (Homo sapiens)
Sequence (Q06187 whole entry): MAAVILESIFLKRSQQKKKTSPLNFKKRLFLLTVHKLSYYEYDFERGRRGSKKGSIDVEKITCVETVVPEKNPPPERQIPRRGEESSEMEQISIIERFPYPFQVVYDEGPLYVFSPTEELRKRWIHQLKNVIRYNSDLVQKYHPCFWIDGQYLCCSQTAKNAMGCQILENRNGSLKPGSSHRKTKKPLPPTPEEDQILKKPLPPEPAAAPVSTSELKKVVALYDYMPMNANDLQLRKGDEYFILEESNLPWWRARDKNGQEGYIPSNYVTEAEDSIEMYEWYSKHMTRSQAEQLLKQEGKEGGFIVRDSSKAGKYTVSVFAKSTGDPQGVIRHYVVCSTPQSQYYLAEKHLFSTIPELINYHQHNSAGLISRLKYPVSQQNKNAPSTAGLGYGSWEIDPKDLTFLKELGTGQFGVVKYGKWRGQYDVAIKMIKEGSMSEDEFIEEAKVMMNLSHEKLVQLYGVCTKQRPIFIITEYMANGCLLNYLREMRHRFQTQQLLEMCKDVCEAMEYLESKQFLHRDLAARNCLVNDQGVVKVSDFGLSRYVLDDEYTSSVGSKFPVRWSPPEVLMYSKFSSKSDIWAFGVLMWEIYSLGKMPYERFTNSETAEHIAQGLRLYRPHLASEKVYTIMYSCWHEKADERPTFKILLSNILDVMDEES
experiment description: FRET-based kinase assay (Z'-LYTE) for BTK inhibition
Assay type: biochemical
condition: IC50 levels that inhibited BTK activity, FRET assay, 0.625 μg/mL purified BTK
measured parameter: IC50

Entry under test: CC(C)=CCCC(C)(O)C1CCC2(C)C1C(O)CC1C3(C)CCC(OC4OC(CO)C(O)C(O)C4O)C(C)(C)C3CCC12C (stereo not shown) . Its IC50 was 61.1 µM

* * *

target entity: BTK (Homo sapiens)
Construct: host or cells: Ramos cells
Sequence (Q06187 whole entry): as above
experiment description: Western blotting, p-BTK/BTK in Ramos cells
Type: cell-based
condition: α-IgM stimulated, stimulation (α-IgM antibody (+), DMSO) group as reference (100%)
BTK inhibitory activity (p-BTK/BTK, Western blotting) overview

CC(C)=CCCC(C)(OC1OC(COC2OCC(O)C(O)C2O)C(O)C(O)C1O)C1CCC2(C)C1C(O)CC1C3(C)CCC(OC4OC(CO)C(O)C(O)C4OC4OC(CO)C(O)C(O)C4O)C(C)(C)C3CCC12C (stereo not shown) [Rb3]    ~ 17%

Shift focus to the following entry.
Given item CC(C)=CCCC(C)(OC1OC(COC2OCC(O)C(O)C2O)C(O)C(O)C1O)C1CCC2(C)C1C(O)CC1C3(C)CCC(OC4OC(CO)C(O)C(O)C4OC4OC(CO)C(O)C(O)C4O)C(C)(C)C3CCC12C (stereo not shown) [Rb2] , the value recorded as its BTK inhibitory activity (p-BTK/BTK, Western blotting) is ~ 17%
